molecular target: RLuc8 (Renilla reniformis, UniProt P27652, A143M/A55T/C124A/K136R/M185V/M253L/S130A/S287L); assay: biochemical
Sequence (P27652 whole entry A55T/C124A/S130A/K136R/A143M/M185V/M253L/S287L): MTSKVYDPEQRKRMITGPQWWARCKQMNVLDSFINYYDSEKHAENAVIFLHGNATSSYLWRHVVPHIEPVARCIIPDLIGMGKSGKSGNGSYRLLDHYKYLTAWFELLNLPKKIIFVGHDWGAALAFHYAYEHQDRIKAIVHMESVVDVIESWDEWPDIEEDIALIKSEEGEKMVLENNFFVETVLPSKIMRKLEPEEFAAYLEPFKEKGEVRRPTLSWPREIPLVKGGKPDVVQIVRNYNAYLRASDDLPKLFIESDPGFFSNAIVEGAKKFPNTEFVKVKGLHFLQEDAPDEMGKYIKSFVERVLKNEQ
Property: Kd
The reply should read as a number followed by its unit.

Can you look up Kd on RLuc8 (Renilla reniformis, UniProt P27652, A143M/A55T/C124A/K136R/M185V/M253L/S130A/S287L) for Oc1ccc(Cc2nc3c(Cc4ccccc4)nc(-c4ccc(O)cc4)cn3c2O)cc1 [CTZ] ? 37 µM
